Test: Plasmodium falciparum growth inhibition, primary screen, strain 3D7, DAPI fluorescence, 100 nL (AID 1184);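 note: parasites grown inside human red blood cells in medium with human serum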
Conditions: P. falciparum 3D7 growth, 3 d, higher = more signal
METRIC NAME: z-score

- OCCCC1=CC(c2cccs2)N(Cc2cc3c(cc2Br)OCO3)CC1 (stereo not given): -1.82
- COc1ccc(CCNC(=O)[C@@H]2c3ccccc3C(=O)N(Cc3ccccc3Cl)[C@H]2c2ccc(CO)cc2)cc1: 0.263
- COCC(=C=CC[C@@H](O)c1cccc(OCCO)c1)C[C@@H](O)c1ccccn1: -1.2
- CO[C@H]1O[C@H](CO)[C@@H](OC(=O)Nc2ccc(C(F)(F)F)cc2)[C@H](OC(=O)Nc2ccc3c(c2)OCO3)[C@@H]1OC(=O)Nc1ccc2c(c1)OCO2: -2.09
- COC(=O)[C@@]1(Cc2ccc(F)cc2)[C@H]2c3cc(C(=O)N(C)C)n(Cc4cc(F)c(F)c(F)c4)c3C[C@H]2CN1C(=O)c1ccccc1: -1.66
- COC(=O)[C@@]1(Cc2ccc(F)cc2)[C@H]2c3cc(C(=O)N(C)C)n(Cc4ccccc4)c3C[C@H]2CN1C(=O)c1ccccc1: -1.41
- COC(=O)[C@@]1(Cc2ccc(OC)cc2)[C@H]2c3cc(C(=O)N(C)C)n(Cc4ccc(S(C)(=O)=O)cc4)c3C[C@H]2CN1C(=O)c1ccccc1: -0.0665
- C=C(COC)/C(=C/C[C@H](OC(C)=O)c1ccc(CO)o1)c1cc(C(=O)OC)ccc1OC: -2.07
- NC(=O)NCC#Cc1ccc2c(c1)[C@]1(C(=O)N2)[C@H](C(=O)Nc2nc3ccccc3s2)[C@H]2C(=O)O[C@H](c3ccccc3)[C@H](c3ccccc3)N2[C@@H]1c1ccccc1OCCO: -1.74
- C=CC[C@]1(C(=O)NCc2ccccc2)N=C(c2ccc(OCCCO)cc2)O[C@H]1c1ccccc1N=[N+]=[N-]: -2.18
- C=CCNC(=O)[C@H]1[C@@H]2C(=O)O[C@@H](c3ccccc3)[C@@H](c3ccccc3)N2[C@@H](c2ccccc2OCCO)[C@]12C(=O)Nc1ccc(C#CCCO)cc12: -2.08
- CN(C)CCCCCCNC(=O)[C@@H]1C[C@@H]2C(=O)N[C@@H](Cc3ccccc3)C(=O)N2[C@@H]1c1ccc(O)cc1: -1.19
- COCCOC(=O)N1C(=O)[C@@]2(c3cc(C#Cc4ccc(OC)cc4)ccc31)[C@H](c1ccc(O)cc1)N1[C@H](c3ccccc3)[C@H](c3ccccc3)OC(=O)[C@H]1[C@@H]2C(=O)N1CCc2cc(OC)c(OC)cc2C1: -2.17
- C=CCC(OC(C)=O)[C@@H]1[C@@H](N(Cc2ccc(-c3cccc(C(F)(F)F)c3)o2)C(=O)c2ccc(C)cc2)c2cc(OCCCO)ccc2N1C(=O)Cc1ccc2ccccc2c1 (stereo not given in full): 0.337
- C[N+](C)(C)CCCCCCNC(=O)[C@@H]1C[C@@H]2C(=O)N[C@@H](Cc3ccccc3)C(=O)N2[C@@H]1c1cccc(OCCO)c1: -0.145

* * *

Assay: fission yeast growth modulation, primary screen, strain 972, OD600, 24 h, no modulator (AID 1090);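 note: basal condition with compound alone and no growth modifier present; test concentration not given here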
Conditions: S. pombe 972 growth, higher = more signal, called active from +8 up or from −8 down
Calls of active or inactive are those of the source.
Listed compounds paired with reported z-score
METRIC NAME: z-score

- Cc1ccc(S[C@]2(C(=O)NC3CC3)CC(=O)N(Cc3ccccc3)[C@@H]2c2ccc(CO)cc2I)cc1: -3.59 (inactive)
- CCOC(=O)C[C@H]1[C@H](OC(=O)c2ccc(C(=O)c3ccccc3)cc2)[C@@H](NC(=O)c2ccccc2)c2cc(OCCCO)ccc2N1C(=O)c1ccc2ccccc2n1: -0.429 (inactive)
- O=C1C2C=CC(C(O)CCc3ccccc3)N(Nc3ccccc3F)C2C(=O)N1c1ccccc1 (stereo not drawn): 0.624 (inactive)
- C=CCNC(=O)[C@@H]1[C@H]2C(=O)O[C@H](c3ccccc3)[C@H](c3ccccc3)N2[C@H](c2ccc(O)cc2)[C@@]12C(=O)Nc1ccc(C#CCNC(N)=O)cc12: 0.112 (inactive)
- COC(=O)C(CC#Cc1ccc2c(c1)[C@]1(C(=O)N2)[C@H](c2ccc(OCCO)cc2)N2[C@H](c3ccccc3)[C@H](c3ccccc3)OC(=O)[C@H]2[C@@H]1C(=O)N1CCc2cc(OC)c(OC)cc2C1)C(=O)OC: 1.74 (inactive)
- C[C@H]1NC(=O)[C@@]23C(=O)N[C@@H](Cc4ccccc4)C2[C@H](C)[C@@]2(C)O[C@H]2C3/C=C/C/C=C\CNC(=O)[C@@H]2CCCN2C1=O (stereo partly drawn): -0.769 (inactive)
- COCCOC(=O)N1C(=O)[C@@]2(c3cc(C#CCNC(N)=O)ccc31)[C@H](C(=O)Nc1nc3ccccc3s1)[C@H]1C(=O)O[C@H](c3ccccc3)[C@H](c3ccccc3)N1[C@@H]2c1ccc(OCCO)cc1: 0.409 (inactive)
- O=C1c2ccccc2[C@](Cc2ccccc2I)(C(=O)NCCN2CCOCC2)[C@H](c2ccc(CO)cc2)N1C1CCCCC1: -0.156 (inactive)

* * *

Test: yeast growth modulation, basal conditions, primary screen, YJM789 clinical isolate, OD600, 24 h (AID 1089);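 note: growth of clinical yeast isolate S. cerevisiae YJM 789 seeded 1000 cells per well; test concentration not given here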
Conditions: S. cerevisiae YJM789 growth, higher = more signal, called active from +8 up or from −8 down
METRIC NAME: z-score

- C=CC1(C(=O)OC)CC=C(C(=O)OC)CC1 (configuration not stated): -1.64
- Oc1ccc2cc[n+](Cc3sc4ccccc4c3Cl)cc2c1: 0.0335
- COC(=O)[C@@]1(Cc2ccc(OC)cc2)[C@H]2c3cc(C(=O)N(C)C)n(CCc4ccccn4)c3C[C@H]2CN1C(=O)c1ccccc1: 0.735
- COC(=O)[C@@]1(Cc2ccc(F)cc2)[C@H]2c3cc(C(=O)N4CCCC4)n(Cc4ccc(S(C)(=O)=O)cc4)c3C[C@H]2CN1C(=O)c1ccccc1: -0.13
- CCCCCCc1nc(-c2ccc(OC)nc2)cc2c1[Si](C(C)C)(C(C)C)O[C@H]2c1ccccc1: 0.493
- CC(=O)NCCCC[C@@H]1NC(=O)[C@@H]2C[C@H](C(=O)NCCCCCNC(=O)CS)[C@H](c3cccc(OCCO)c3)N2C1=O: -3.39
- CC(C)[Si]1(C(C)C)O[C@@H](c2ccccc2)c2cc(-c3ccc(-c4ccc(Cl)c(Cl)c4)o3)nc(-c3ccccc3)c21: -0.585

* * *

Assay: E. coli growth modulation, two-sided OD650, primary screen, E. coli filamentation project, strain DRC41, 24 h (AID 1093);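 note: MC1000 strain lacking acrAB efflux and sulA so SOS filamentation is blocked; test concentration not given here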
Settings: OD650, 24 h, higher = more signal, called active from +8 up or from −8 down
METRIC NAME: z-score

* CCCC#C[Si](O[C@H](CC)c1cn(Cc2cccc(Cl)c2)nn1)(C(C)C)C(C)C | 1.5
* COC(=O)[C@H](Cc1ccccc1)N[C@@H](/C=C/C1CC1)[C@H](O)Cc1ccccc1 | -0.296
* C=CCOC(=O)[C@@H]1[C@H]2C(=O)O[C@H](c3ccccc3)[C@H](c3ccccc3)N2[C@H](c2ccc(OCCOC(=O)[C@H]3C[C@H]4C(=O)N5CCC[C@H]5C(=O)N4[C@H]3c3ccc(O)cc3)cc2)[C@@]12C(=O)Nc1ccc(I)cc12 | 0.553
* CCC[C@@H]1C[C@@]1(CCC)[C@@H](NS(=O)(=O)c1cccc2cccnc12)c1ccc(Cl)cc1 | -1.01

* * *

Test system: PRMT1 (protein arginine N-methyltransferase 1)
Assay: PRMT1 binders on small-molecule microarrays, primary screen, biochemical, small-molecule microarray, 635 nm fluorescence (AID 1088);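 note: binding of Prmt1 protein to compounds spotted on small-molecule microarray slides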
Settings: small-molecule microarray binding, higher = more signal
METRIC NAME: composite z-score

• C=CCC(OC(C)=O)[C@@H]1[C@@H](N(Cc2ccc(-c3ccccc3)cc2)C(=O)c2cccc3ccccc23)c2cc(OCCCO)ccc2N1C(=O)c1ccc(-c2ccccc2)cc1 (stereo partly drawn) = 0.245
• CC(C)C(=C=CC[C@@H](O)c1ccc(OCCO)cc1)C[C@@H](O)COCc1ccccc1 = 1.54
• COCCOC(=O)N1C(=O)[C@@]2(c3cc(C#Cc4ccc(OC)cc4)ccc31)[C@H](c1ccc(OCCO)cc1)N1[C@H](c3ccccc3)[C@H](c3ccccc3)OC(=O)[C@H]1[C@@H]2C(=O)N1CCN(c2ncccn2)CC1 = 1.55

* * *

# Lookup of reported composite z-score keyed by entry
System: glycogen synthase kinase-3 (GSK3A per assay name; protocol says GSK3B)
Assay: GSK3 binders on small-molecule microarrays, primary screen, biochemical, small-molecule microarray, 635 nm fluorescence, GSK3A (AID 1103); note: the record names both GSK3A and GSK3B
Details: small-molecule microarray binding, fluorescence 635 nm; higher = more signal
METRIC NAME: composite z-score

• C=CCN1C(=O)[C@]2(O[C@H](CCn3cc([C@H](O)c4ccccc4)nn3)[C@@H]([Si](C)(C)c3ccc(OC)cc3)[C@@H]2C)c2ccccc21 = -0.781
• CC1CC/C=C\[C@H]2OC34C=CCN(C(C)(C)C)C(=O)[C@H]3N(C(C)CO)C(=O)[C@@H]4C2C(=O)O1 (some centres undefined) = -0.948
• CCCC[C@@H]1C[C@H]1[C@@H](NC(=O)c1ccco1)c1ccccc1C(F)(F)F = -0.291
• NC(=O)NCC#Cc1ccc2c(c1)[C@]1(C(=O)N2)[C@H](c2ccc(O)cc2)N2[C@H](c3ccccc3)[C@H](c3ccccc3)OC(=O)[C@H]2[C@@H]1C(=O)O = -0.928
